Target: Ubiquitin carboxyl-terminal hydrolase 17-like protein 5 (Homo sapiens)
Experiment: ubiquitin-specific protease 17 DUB inhibitors, concentration-effect assay, cell-free, verification of initial screening actives (AID 1645864)
Settings: purified USP17, ubiquitin-rhodamine cleavage fluorescence, 3 h
Active and inactive are the calls of the source.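 The calls were made as follows: active = maximal inhibition of USP17 at or above 30% in the confirmation dose-response, a value not among the printed readouts; inactive = the rest.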
Choose one outcome from this list and give only that: true (1) = active, false (0) = inactive

Structure smiles | Class
Cc1ccc(Cc2nc(-c3ccc(=O)[nH]c3)no2)cc1 | false (0)
CC1CCN(S(=O)(=O)c2ccc(C(=O)Nc3ccc(S(N)(=O)=O)cc3)cc2)CC1 | true (1)

// return assay outcome for COc1ccc(NS(=O)(=O)c2cc(NC(=O)CCc3nc4ccccc4s3)ccc2C)cc1
true (1)

// return assay outcome for O=c1c(-c2nc(C3CC3)no2)cccn1Cc1c(F)cccc1Cl
false (0)

// return assay outcome for CN1CCN(c2ccc3nc(-c4ccccc4)c(-c4ccccc4)nc3c2)CC1
false (0)

---

Biological target: Ubiquitin carboxyl-terminal hydrolase 17-like protein 5 (Homo sapiens) (UniProt A8MUK1)
Sequence (A8MUK1 whole entry, looked up): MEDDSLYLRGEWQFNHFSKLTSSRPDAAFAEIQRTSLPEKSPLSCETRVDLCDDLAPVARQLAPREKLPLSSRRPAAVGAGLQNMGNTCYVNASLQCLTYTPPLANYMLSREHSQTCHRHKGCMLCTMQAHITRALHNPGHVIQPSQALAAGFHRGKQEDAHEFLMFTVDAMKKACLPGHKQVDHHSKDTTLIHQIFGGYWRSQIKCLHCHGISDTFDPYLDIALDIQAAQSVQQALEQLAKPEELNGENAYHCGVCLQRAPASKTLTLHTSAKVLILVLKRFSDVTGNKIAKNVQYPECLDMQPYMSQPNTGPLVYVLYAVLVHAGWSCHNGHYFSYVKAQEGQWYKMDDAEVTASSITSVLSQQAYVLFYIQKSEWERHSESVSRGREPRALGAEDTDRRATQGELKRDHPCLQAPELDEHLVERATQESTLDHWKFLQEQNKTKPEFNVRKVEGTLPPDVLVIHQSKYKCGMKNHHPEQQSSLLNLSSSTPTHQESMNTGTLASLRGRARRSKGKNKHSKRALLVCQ
Test: ubiquitin-specific protease 17 DUB inhibitors, concentration-effect assay, cell-free, verification of initial screening actives (AID 1645864)
Conditions: purified USP17, ubiquitin-rhodamine cleavage fluorescence, 3 h
Active and inactive are the calls of the source.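 How the source made its calls: active means maximal inhibition of USP17 at or above 30% in the confirmation dose-response, a value not among the printed readouts; inactive means the rest.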
Choose one outcome from this list and give only that: TRUE for active, FALSE for inactive

Consider the following illustrative entries.
Compound | Class
Cn1cc(NC(=O)Nc2cccc3ccccc23)c2ccccc21 | TRUE
O=C(CN1C(=O)C2CCCC2=Nc2ccccc21)Nc1ccc(F)cc1F (configuration not stated) | TRUE
COc1cccc(CN2CCc3nc4nc(C)ccc4cc3C2)c1 | FALSE
CC1OC(CC(=O)O)CC23OC12C(=O)c1c(O)cccc1C3=O (configuration not stated) | TRUE
COc1ccccc1-c1ccc(SCC(=O)Nc2ccc3c(c2)OCCO3)nn1 | FALSE

// return assay outcome for C/C=C1/C2=CCCN3C(=O)O[C@H]([C@H]1O)[C@H]23
TRUE

// return assay outcome for O=c1[nH]c(-c2ccccn2)nc2c1CCN(Cc1cnn(-c3ccccc3)c1)C2
FALSE

---

Target: Ubiquitin carboxyl-terminal hydrolase 17-like protein 5 (Homo sapiens)
Test: ubiquitin-specific protease 17 DUB inhibitors, concentration-effect assay, cell-free, verification of initial screening actives (AID 1645864)
Conditions: purified USP17, ubiquitin-rhodamine cleavage fluorescence, 3 h
Calls of active or inactive are those of the source.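 The calls were made as follows: active = maximal inhibition of USP17 at or above 30% in the confirmation dose-response, a value not among the printed readouts; inactive = the rest.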
Choose one outcome from this list and give only that: active, inactive

Consider the following illustrative entries.
Compound | Class
N#Cc1cccc(S(=O)(=O)N2CCc3nc4ccccc4n3CC2)c1 | active
c1csc(-c2nc(Nc3ccc4c(c3)CCC4)c3ccccc3n2)c1 | active
Cc1ccccc1-c1noc(-c2ccccc2OCC(=O)NC(C)C)n1 | inactive
COc1cc2c(cc1NC(=O)c1ccc(-n3cnnn3)cc1)oc1ccccc12 | active
CNC(=O)c1c2n(c3ncccc13)CCN(S(=O)(=O)c1ccc(-c3ccccc3)cc1)C2 | active
N#Cc1ccc(-c2ccc(OCC(=O)Nc3ccc4c(c3)OCO4)cc2)cc1 | active
CCN(C(=O)c1cc2c(s1)-c1ccccc1OC2)c1ccccc1F | inactive
Cc1cccc(NC(=O)Nc2ccc(C)n(CC(=O)Nc3ccccc3)c2=O)c1 | active
COc1ccccc1CNC(=O)C1CCCN(c2nc3ccsc3c(=O)s2)C1 (stereo unspecified) | active
CC1Oc2cc3c(-c4c(O)cc(O)c5c(O)c6c(cc45)OC(C)C(C)C6=O)c(O)cc(O)c3c(O)c2C(=O)C1C (stereo unspecified) | active

// return assay outcome for O=C(NCc1ccccc1Cl)c1ccc(-c2nnc(-c3ccccc3)o2)cc1
active

// return assay outcome for CN(Cc1ccccc1)S(=O)(=O)c1ccc2[nH]cc(C(=O)NCc3cccs3)c(=O)c2c1
active

// return assay outcome for CCn1c(SCC(=O)c2c(N)n(CC(C)C)c(=O)n(C)c2=O)nnc1-c1ccccc1
active
